Test: Hemolytic activity in rabbit RBC incubated for 1 hr by microplate reader analysis
Assay type: toxicity, cell-based, Oryctolagus cuniculus, Erythrocyte
Conditions: rabbit red blood cells (erythrocytes)
result_type: HC50 at 1 h

Here is how some compounds turned out for HC50 at 1 h.
>>> result("CN(C)CCCCOc1ccc(C(C)(C)CC(C)(C)C)cc1Sc1cc(C(C)(C)CC(C)(C)C)ccc1OCCCCN(C)C")
"23.2 µg/mL"
>>> result("CC(C)(C)CC(C)(C)c1ccc(OCCCCN2CCSCC2)c(Sc2cc(C(C)(C)CC(C)(C)C)ccc2OCCCCN2CCSCC2)c1")
"> 200 µg/mL"

Switching to the query record.
// lookup HC50 at 1 h for CCN(CC)CCCCOc1ccc(C(C)(C)CC(C)(C)C)cc1Sc1cc(C(C)(C)CC(C)(C)C)ccc1OCCCCN(CC)CC
67.9 µg/mL
